# TEST_SUMMARY: NCI Yeast Anticancer Drug Screen. Data for the rad50 strain (AID 155);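 note: 0% = growth of vehicle-only cultures of the same strain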
# EXPERIMENTAL_SETUP: S. cerevisiae rad50 strain growth inhibition; at 5.0 µM (retest, dose inferred, filed as 0.5)
# Method: Growth inhibition of yeast strains with defined genetic alterations is measured as a screen for potential anti-cancer activity. Selected strains with alterations in DNA damage repair or cell cycle control were exposed to compounds and growth inhibition was measured relative to vehicle treated controls. The strain used in this assay is rad50
Compounds without any hit were thinned out: in the full panel of roughly 79,000, 15% have a hit. Active and inactive are the calls of the source. Cut-off read from the data, not from the text of the source: active = growth inhibition above about 70%; inactive = the rest.
# output must be one of active, inactive

{"columns": ["MOLECULE", "CAT"],
 "data": [
  ["S=c1nc(N2CCCCC2)ss1", "inactive"],
  ["COc1ccc(C(=O)CC2(O)C(=O)N(C)c3c(Cl)cc(Cl)cc32)cc1 (configuration not stated)", "inactive"]
]}

// param item: "CCOC(=O)/C(=C/c1ccccn1)C(=O)c1ccccc1" ; yields the recorded call
inactive

// param item: CCCCN(CCCC)Cc1ccc(NC(C(=O)c2ccccc2)c2ccccc2)cc1 (configuration not stated) ; yields the recorded call
inactive

// param item: Cc1[nH]c2ccccc2c1/C=C1\C(=O)C2CCC1C2 (configuration not stated) ; yields the recorded call
inactive

* * *

# TEST_SUMMARY: NCI Yeast Anticancer Drug Screen. Data for the mlh1 rad18 strain (AID 175)
# EXPERIMENTAL_SETUP: S. cerevisiae mlh1 rad18 strain growth inhibition; at 5.0 µM (retest, dose inferred, filed as 0.5)
About 79,000 compounds went through this panel and 15% of them were active in at least one assay; those are over-represented in the sample as a whole. The source made the active and inactive calls. Rule as the data show it: active = growth inhibition above about 70%; inactive = the rest.
# output must be one of active, inactive

Take a look at these entries with their results.
{"columns": ["MOLECULE", "CAT"],
 "data": [
  ["Cc1ccnc2c1ccc1c(C)ccnc12", "inactive"],
  ["COc1nc(Nc2ccc(/C=C/c3ccc(Nc4nc(OC)nc(N(CCO)CCO)n4)cc3S(=O)(=O)O)c(S(=O)(=O)O)c2)nc(N(CCO)CCO)n1", "inactive"],
  ["N=C(N)SC1c2ccccc2-c2cc([N+](=O)[O-])ccc21 (stereo not given)", "inactive"],
  ["CCOC(=O)[C@]12CCC[C@@]1(O)NC(=O)c1cnccc12", "inactive"],
  ["O=S(O)CCCCCSSc1ccccc1", "inactive"],
  ["CSc1nc(=S)c2[nH]c(C)nc2[nH]1", "inactive"],
  ["Nc1ccc(Cc2ccc(Cl)cc2)cc1", "inactive"],
  ["C=C1C(=O)OC2C1CC1OC2C(C)CCC/C(C)=C\\CCC1(C)O (stereo not given)", "inactive"],
  ["CN(C)CCC1(C2=CCCC2)CC/C(=C\\c2ccccc2Cl)C1=O (stereo not given)", "inactive"]
]}

Then this molecule:
// param item: "CC(C)(C)CC(C)(C)c1ccc(O)c(O)c1" ; yields the recorded call
active

* * *

# TEST_SUMMARY: NCI Yeast Anticancer Drug Screen. Data for the rad50 strain (AID 155);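 note: 0% = growth of vehicle-only cultures of the same strain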
# EXPERIMENTAL_SETUP: S. cerevisiae rad50 strain growth inhibition; at 5.0 µM (retest, dose inferred, filed as 0.5); active compounds read high
Compounds without any hit were thinned out: in the full panel of roughly 79,000, 15% have a hit.
We begin with a simple list: items and their reported growth inhibition.
Give the value in % but do not write % after it.

Record excerpt, results attached:
{"columns": ["COMPOUND", "growth inhibition, %"],
 "data": [
  ["CN(C)CCCNc1ccc2c(=O)n(CCN(C)C)c(=O)n3c4ccccc4c(=O)c1c23", 42],
  ["CC1=C(C(=O)Nc2cc(O)ccc2O)C(c2cccc([N+](=O)[O-])c2)C(C(=O)Nc2cc(O)ccc2O)=C(C)N1", -8],
  ["CCN(CC)CCCC(Nc1c2ccc(Cl)cc2nc2ccc(OC)cc12)c1cccs1 (configuration not stated)", 91],
  ["S=C(N/N=C1\\C=Cc2ccccc2C1)N/N=C1\\C=Cc2ccccc2C1", 0]
]}

Read the next record carefully.
For "Cn1cc(/C=C/[N+](=O)[O-])c2ccc(OCc3ccccc3)cc21" , what is its reported growth inhibition?
2

* * *

We begin with a simple list: items and their reported growth inhibition.
# TEST_SUMMARY: NCI Yeast Anticancer Drug Screen. Data for the sgs1 mgt1 strain (AID 161);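 note: 0% = growth of cultures given vehicle only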
# EXPERIMENTAL_SETUP: S. cerevisiae sgs1 mgt1 strain, at 50.0 µM (retest, dose inferred, filed as 5.0), active compounds read high
About 79,000 compounds went through this panel and 15% of them were active in at least one assay; those are over-represented in the sample as a whole.
Give the value in % but do not write % after it.

Record excerpt, results attached:
{"columns": ["COMPOUND", "growth inhibition (%)"],
 "data": [
  ["COc1ccc(/C=C2\\CCC(CN(C)C)C2=O)cc1 (stereo not given)", 99],
  ["O=C1C(c2ccccc2)=[N+]([O-])c2ccccc21", 92]
]}

For CCOC(C)c1ccccc1 (stereo not given) , what is its reported growth inhibition?
62

For CC(C)SCC1CO1 (stereo not given) , what is its reported growth inhibition?
1

For "FC(F)(F)c1[nH]nc(-c2cc3ccccc3o2)c1N=NN1CCOCC1" , what is its reported growth inhibition?
99

* * *

# TEST_SUMMARY: NCI Yeast Anticancer Drug Screen. Data for the mlh1 rad18 strain (AID 175)
# EXPERIMENTAL_SETUP: S. cerevisiae mlh1 rad18 strain growth inhibition; at 50.0 µM (retest, dose inferred, filed as 5.0)
The panel holds about 79,000 compounds, 15% with a hit somewhere; the sample as a whole holds those more often. Active and inactive are the calls of the source. No stated cut-off is given here; in the data, active means growth inhibition above about 70%; inactive means the rest.
# output must be one of active, inactive

{"columns": ["COMPOUND", "CAT"],
 "data": [
  ["CC(C)=Cc1cc2c(cc1O)CCC1C2CC[C@@]2(C)C1CC[C@@H]2O (some centres undefined)", "inactive"],
  ["O=NN(CCCl)C(=O)Oc1cc(Cl)c(Cl)cc1Cl", "active"],
  ["NNC(=S)NN/C=C(\\C=Nc1ccccc1)[N+](=O)[O-]", "active"]
]}

Then this compound:
// param item: "CC12CC(Br)(Br)C(=O)C3C1CCCC32" ; yields the recorded call
active

* * *

# TEST_SUMMARY: NCI Yeast Anticancer Drug Screen. Data for the rad50 strain (AID 155);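 note: 0% = growth of vehicle-only cultures of the same strain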
# EXPERIMENTAL_SETUP: S. cerevisiae rad50 strain growth inhibition; at 5.0 µM (retest, dose inferred, filed as 0.5); active compounds read high
The panel holds about 79,000 compounds, 15% with a hit somewhere; the sample as a whole holds those more often. Active and inactive are the calls of the source. Rule as the data show it: active = growth inhibition above about 70%; inactive = the rest.
We begin with a simple list: items and their reported growth inhibition.

For "CCN(CC)CCCNc1nccc2c(C)c3[nH]c4ccncc4c3cc12" , what is its reported growth inhibition?
41% (inactive)

For "O=C(Nc1ccc(S(=O)(=O)NC2CCCCC2)cc1)OC1CCCCC1" , what is its reported growth inhibition?
14% (inactive)

* * *

# TEST_SUMMARY: NCI Yeast Anticancer Drug Screen. Data for the sgs1 mgt1 strain (AID 161);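 note: 0% = growth of cultures given vehicle only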
# EXPERIMENTAL_SETUP: S. cerevisiae sgs1 mgt1 strain, at 50.0 µM
About 79,000 compounds went through this panel and 15% of them were active in at least one assay; those are over-represented in the sample as a whole. The source made the active and inactive calls. No stated cut-off is given here; in the data, active means growth inhibition above about 70%; inactive means the rest.
# output must be one of active, inactive

{"columns": ["COMPOUND", "CAT"],
 "data": [
  ["CC(C)OC(=O)c1ccc(NCC2=CC(=O)C=CC2=O)cc1Cl", "active"],
  ["O=Cc1cc(O)ccc1Br", "active"],
  ["O=C(O)/C(=C/c1c(O)ccc2ccccc12)c1csc(-c2nc(/C(=C\\c3c(O)ccc4ccccc34)C(=O)O)cs2)n1", "active"],
  ["CCOC(=O)/C=C/c1ccc([N+](=O)[O-])o1", "active"],
  ["Cc1cc2c(cc1C)[n+](=O)c(C(=O)C/C(=N/NC(=O)CC#N)C(=O)Nc1ccccc1C(F)(F)F)c(C)n2[O-]", "active"]
]}

// param item: "O=[N+]([O-])c1ccc2c(N=Nc3ccc4ccccc4c3O)c(O)cc(S(=O)(=O)O)c2c1" ; yields the recorded call
active

// param item: "CCOC(=O)C(CCSC)C(=O)OCC" ; yields the recorded call
inactive

// param item: N#CC(C#N)C(C#N)c1ccc(Cl)c(Cl)c1 (stereo not drawn) ; yields the recorded call
active

* * *

# TEST_SUMMARY: NCI Yeast Anticancer Drug Screen. Data for the rad50 strain (AID 155);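 note: 0% = growth of vehicle-only cultures of the same strain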
# EXPERIMENTAL_SETUP: S. cerevisiae rad50 strain growth inhibition; at 50.0 µM; active compounds read high
This is part of a sample that, as a whole, favours compounds with a hit. Of some 79,000 tested, about 15% had one in any assay.
MEASUREMENT_KIND: growth inhibition (%)
Give the value in % but do not write % after it.

Record excerpt, results attached:
{"columns": ["MOLECULE", "SCALE_UNIT", "growth inhibition"],
 "data": [
  ["CN(C=O)c1ccc2c(c1)Cc1ccccc1-2", "%", 47.7],
  ["CCC[CH2][Sn]([CH2]CCC)([O]C(=O)C(OC(C)=O)c1ccccc1)[O]C(=O)C(OC(C)=O)c1ccccc1 (stereo not given)", "%", 98.5],
  ["CC1=C(C(=O)Nc2ccccc2)C(c2cccc([N+](=O)[O-])c2)C(C(=O)Nc2ccccc2)=C(C)N1", "%", -7.95],
  ["Oc1c(Br)c(Br)c(O)c(Br)c1Br", "%", 98.9],
  ["CC1=NN(C(=O)c2ccc(Cl)cc2)C(=O)C1N=Nc1ccc(S(=O)(=O)Nc2ncccn2)cc1 (stereo not given)", "%", 55.7],
  ["CC1(C(Cl)(Cl)Cl)C=CC(O)(C#CC2(O)C=CC(C)(C(Cl)(Cl)Cl)C=C2)C=C1 (stereo not given)", "%", 94.5],
  ["CC/C(=N\\NS(=O)(=O)c1ccc(C)cc1)c1cccc(OC)c1", "%", 69.6],
  ["c1ccc(C[n+]2cccc(-c3cc4ccccc4[nH]3)c2)cc1", "%", -21.7]
]}

For "O/N=C(/C[n+]1csc2ccccc21)c1ccccc1" , what is its reported growth inhibition?
35.3

For "Cc1ccc(I)c(C(C)(C)O)c1" , what is its reported growth inhibition?
94.8

For COc1ccc(NC(=O)CCC(NS(=O)(=O)c2ccc(C)cc2)C(=O)O)cc1 (stereo not given) , what is its reported growth inhibition?
19.4

For "C/C(=N\NC(=S)N1CCN(c2ccccn2)CC1)c1ncccn1" , what is its reported growth inhibition?
32.5

For "O=Nc1c(O)ccc2ccccc12.[Fe].[Na+]" , what is its reported growth inhibition?
97.2

For CC(C(=O)O)c1c(-c2ccccc2)ccc2ccccc12 (stereo not given) , what is its reported growth inhibition?
38.9

For C=C1CC(c2ccc(OCCCN3C(=O)c4ccccc4C3=O)c(OC)c2)OC1=O (stereo not given) , what is its reported growth inhibition?
76.3

For CCOC(=O)NC(c1ccc(C(NC(=O)OCC)P(=O)(O)NC23CC4CC(CC(C4)C2)C3)cc1)P(=O)(O)NC12CC3CC(CC(C3)C1)C2 (stereo not given) , what is its reported growth inhibition?
60.4

For "O=C1CCC(=O)c2c1c(O)c1ccncc1c2O" , what is its reported growth inhibition?
98.1

For "CCN(CC)CCOC(=O)CCN1CC2CCC(CC2)C1" , what is its reported growth inhibition?
-35.6

For "CCCN1C(=O)c2ccccc2C1=O" , what is its reported growth inhibition?
20.4

For "CN(C)CCOc1ccc2c(c1)C(=O)/C(=C\c1ncc([N+](=O)[O-])n1C)C2" , what is its reported growth inhibition?
54.1

For "O=C(O)c1c(Cl)c(Cl)c(Cl)c(Cl)c1-c1c2cc(I)c(=O)c(I)c-2oc2c(I)c(O)c(I)cc12" , what is its reported growth inhibition?
91.3

For "Clc1ccc(-c2noc(CN3CCCCC3)n2)cc1" , what is its reported growth inhibition?
66

For "OCCCNc1nc2ccc(Cl)cc2c2ccccc12" , what is its reported growth inhibition?
23.6

For "O=C(CNC(=O)OCc1ccccc1)Oc1ccc([N+](=O)[O-])cc1" , what is its reported growth inhibition?
22.1

For N=C(N)SC1c2ccccc2-c2cc([N+](=O)[O-])ccc21 (stereo not given) , what is its reported growth inhibition?
97.7

For "CCCCCCCCCCCCCC(=O)OCC[N+](C)(C)C" , what is its reported growth inhibition?
90.2
